These measurements were taken from paper PMC5405074.

- experiment: Biodistribution of ^111In-labeled peptides in B16-F1 melanoma-bearing mice
- Assay type: in vivo, mouse (B6D2F1)
- assay.context: female, B6D2F1 (C57BL/6 × DBA/2F1 hybrids), mouse, skin, iv, total radioactivity; ^111In-labeled peptide, 185 kBq i.v., 24 h; mean ± SEM of three experiments, n = 5 animals each; read-out: Skin uptake
Non-standard residues stand in square brackets, D forms with d. Residues, ends and D or L forms follow the SMILES beside them. *: point of attachment. DOTA = O=C(O)CN1CCN(CC(=O)O)CCN(CC(=O)*)CCN(CC(=O)O)CC1; pY = N[C@@H](Cc1ccc(OP(=O)(O)O)cc1)C(=O)O; Nle = CCCC[C@H](N)C(=O)O
reported.property: tissue uptake at 24 h

Consider CCCC[C@H](NC(C)=O)C(=O)N[C@@H](CC(=O)O)C(=O)N[C@@H](Cc1c[nH]cn1)C(=O)N[C@H](Cc1ccccc1)C(=O)N[C@@H](CCCNC(=N)N)C(=O)N[C@@H](Cc1c[nH]c2ccccc12)C(=O)NCC(=O)N[C@@H](CCCCNC(=O)CN1CCN(CC(=O)O)CCN(CC(=O)O)CCN(CC(=O)O)CC1)C(=O)N[C@H](CC(=O)O)C(=O)N[C@H](CC(=O)O)C(=O)O [DOTA-NAP-D-Asp-D-Asp] (Ac-[Nle]DH[dF]RWGK(DOTA)[dD][dD]-OH) . Its measured tissue uptake at 24 h is 0.06 %ID/g

Memo: CCCC[C@H](NC(=O)[C@H](Cc1ccc(OP(=O)(O)O)cc1)NC(=O)CNC(=O)CN1CCN(CC(=O)O)CCN(CC(=O)O)CCN(CC(=O)O)CC1)C(=O)N[C@@H](CC(=O)O)C(=O)N[C@@H](Cc1c[nH]cn1)C(=O)N[C@H](Cc1ccccc1)C(=O)N[C@@H](CCCNC(=N)N)C(=O)N[C@@H](Cc1c[nH]c2ccccc12)C(N)=O [DOTA-Phospho-MSH2-9] ({DOTA}-G[pY][Nle]DH[dF]RW-NH2) , reported tissue uptake at 24 h: 0.07 %ID/g
